Where do the numbers come from? From PubChem BioAssay (NCI).

# Tested on: UO-31 renal
# assay_details: NCI tumour cell line growth inhibition, 48 h
Some compounds, each annotated with its measured GI50.
value_kind: GI50

>  <compound_structure>
O=c1[nH]c2cc(Cl)ccc2n1C1CCN(CCCC(c2ccc(F)cc2)c2ccc(F)cc2)CC1

>  <readout_value>
1000 nM

$$$$
>  <compound_structure>
Cc1[nH]n(-c2cccc(Cl)c2)c(=O)c1/C=C1\C=Nc2ccc(Br)cc21

>  <readout_value>
2080 nM

$$$$
>  <compound_structure>
O=C(N/N=C\c1cc(Br)ccc1O)c1ccncc1

>  <readout_value>
1760 nM

$$$$
>  <compound_structure>
Cc1ccc(Nc2nc(N)c(C(=O)c3ccc(C#N)cc3)s2)cc1

>  <readout_value>
644 nM

$$$$

====

Some compounds, each annotated with its measured log10 TGI.
# System: NCI-H522 lung
# assay_details: NCI tumour cell line growth inhibition, 48 h
value_kind: log10 TGI (log10 of the value in µM)

>  <compound>
CCOC(=O)N1CCN(C(=O)c2ccc(C(F)(F)F)nc2Nc2cc(Cl)ccc2C)CC1

>  <value_kind>
log10 TGI

>  <readout_value>
1.44

$$$$
>  <compound>
CN(C)Cc1c[nH]c2c1C(=O)c1c(c(O)c3ccccc3c1O)C2=O

>  <value_kind>
log10 TGI

>  <readout_value>
1.55

$$$$
>  <compound>
CCOC(=O)c1[nH]c(COC(C)=O)c(CCCOC(C)=O)c1CCCOC(C)=O

>  <value_kind>
log10 TGI

>  <readout_value>
1.72

$$$$
>  <compound>
COc1cc(NC(C)CCCN)c2nccc(C)c2c1OC (stereo not given)

>  <value_kind>
log10 TGI

>  <readout_value>
1.29

$$$$
>  <compound>
CCCCCc1c(C)[nH]c(/C=C2\N=C(c3ccc[nH]3)C=C2CC)c1C

>  <value_kind>
log10 TGI

>  <readout_value>
-0.97

$$$$
>  <compound>
Cc1ccc(S(=O)(=O)C2=Cc3ccc(C(F)(F)F)cc3C2(O)c2cccc(C(F)(F)F)c2)cc1 (stereo not given)

>  <value_kind>
log10 TGI

>  <readout_value>
0.58

$$$$
>  <compound>
COc1ccc(CCNC2=CC(=O)c3ncccc3C2=O)cc1OC

>  <value_kind>
log10 TGI

>  <readout_value>
0.92

$$$$

====

# Tested on: LXFL 529 NSCLC
# assay_details: NCI tumour cell line growth inhibition, 48 h

>  <compound>
O=C1CSC(Cc2nc3ccccc3[nH]2)=N1

>  <TGI>
> 53.8 µM

$$$$
>  <compound>
COc1cc2c(cc1OCc1ccccc1)CNCC2

>  <TGI>
> 100 µM

$$$$
>  <compound>
COc1ccc(C(=O)C(CO)Oc2ccccc2OC)cc1OC (configuration not stated)

>  <TGI>
> 100 µM

$$$$
>  <compound>
O=C(CN1CCCCC1)N1CCc2c([nH]c3ccccc23)C1c1cccnc1 (configuration not stated)

>  <TGI>
> 100 µM

$$$$
>  <compound>
COc1cc2c(cc1OC)C(O)[C@H](Br)C(C)(C)O2 (some centres not stated)

>  <TGI>
> 100 µM

$$$$
>  <compound>
Cc1cc(C)n(CCNCCn2nc(C)cc2C)n1

>  <TGI>
> 100 µM

$$$$
>  <compound>
COc1c(C)c2c(c(C)c1Cl)Oc1c(C=O)c(O)c(Cl)c(C)c1C(=O)O2

>  <TGI>
82.9 µM

$$$$
>  <compound>
CCOC(=O)C(N=Nc1ccc(S(N)(=O)=O)cc1)C(C)=O (configuration not stated)

>  <TGI>
> 100 µM

$$$$
>  <compound>
N#CC1(C2SCCS2=O)C2=C(C(=O)c3ccccc3C2=O)N2CCCC21 (configuration not stated)

>  <TGI>
8.06 µM

$$$$
>  <compound>
O=c1cc(-c2ccccc2)[nH]c2cc3c(cc12)OCO3

>  <TGI>
> 100 µM

$$$$
>  <compound>
Clc1ccc(-c2c(C3=NCCN3)nnn2-c2ccc(Cl)cc2)cc1

>  <TGI>
95.4 µM

$$$$
>  <compound>
CCOC(=O)[C@H](CCCNC(=O)OC(C)(C)C)NCc1ccc(OC)c(OC)c1

>  <TGI>
> 100 µM

$$$$

====

# System: U251 CNS
# assay_details: NCI tumour cell line growth inhibition, 48 h

>  <molecule>
CC(C)=CCS(=O)c1ccccc1NC1=CC(=O)CC(C)(C)C1 (centres undefined)

>  <TGI>
2.42 µM

$$$$
>  <molecule>
CN1CCc2c(Sc3ccc(C(=O)NO)cc3)c3ccccc3n2C1

>  <TGI>
3.29 µM

$$$$
>  <molecule>
COC(=O)[C@@H](NC(=O)[C@@H](OC)[C@@H]1Cc2cc3cc(OC4CC(OC5CC(O)C(O)C(C)O5)C(O)C(C)O4)c(C)c(O)c3c(O)c2C(=O)[C@H]1OC1CC(OC2CC(OC3CC(C)(O)C(O)C(C)O3)C(O)C(C)O2)C(O)C(C)O1)C(C)C (some centres undefined)

>  <TGI>
1.6 µM

$$$$
>  <molecule>
C#CCn1ncc2c(SCc3ccccc3)ncnc21

>  <TGI>
> 100 µM

$$$$
>  <molecule>
CC(=O)OCC1OC([S-])C(OC(C)=O)C(OC(C)=O)C1OC(C)=O.CC[PH+](CC)CC.CC[PH+](CC)CC.[Au].[Au] (centres undefined)

>  <TGI>
0.306 µM

$$$$
>  <molecule>
C#CC(=O)Nc1cccc(Nc2nc3c(c(NCc4ccccc4)n2)CCCC3)c1

>  <TGI>
0.0776 µM

$$$$
>  <molecule>
Clc1ccc(-c2c(C3=NCCN3)nnn2-c2ccc(Cl)cc2)cc1

>  <TGI>
45.2 µM

$$$$
>  <molecule>
NC(CCC(=O)NC(CSC(=O)N(O)c1ccc(Br)cc1)C(=O)NCC(=O)O)C(=O)O (centres undefined)

>  <TGI>
> 100 µM

$$$$
>  <molecule>
O=c1cc(-c2ccccc2)[nH]c2cc3c(cc12)OCO3

>  <TGI>
> 82.3 µM

$$$$
>  <molecule>
N#CC1Nc2ccccc2[C@@H](O)C1O (some centres undefined)

>  <TGI>
> 100 µM

$$$$
>  <molecule>
CC(=O)N(C(=O)CC(=O)N/N=C\c1ccc(Br)c(N(CCC#N)CCC#N)c1)c1ccc(Cl)cc1

>  <TGI>
> 100 µM

$$$$
>  <molecule>
CCN(CC)CCOc1ccc(/C(=C(\C)c2ccc(F)c(OC)c2)c2ccc(Cl)cc2)cc1

>  <TGI>
4.74 µM

$$$$
>  <molecule>
CCOC(=O)C(N=Nc1ccc(S(N)(=O)=O)cc1)C(C)=O (centres undefined)

>  <TGI>
> 100 µM

$$$$
>  <molecule>
O=C(CC(c1ccccc1)N1CCCCC1)c1ccccc1 (centres undefined)

>  <TGI>
21.9 µM

$$$$
>  <molecule>
COC(CN(C(=O)c1ccccc1)C1CCC2(SCCS2)c2[nH]c3ccccc3c21)OC (centres undefined)

>  <TGI>
> 100 µM

$$$$
>  <molecule>
COn1cc(C=O)c2ccccc21

>  <TGI>
> 100 µM

$$$$
>  <molecule>
COc1ccc(-n2cc(-c3ccc(Cl)c(Cl)c3)nc2SCc2cccc(C#N)c2)cc1

>  <TGI>
> 100 µM

$$$$
>  <molecule>
CCOC(=O)c1[nH]c(COC(C)=O)c(CCCOC(C)=O)c1CCCOC(C)=O

>  <TGI>
> 100 µM

$$$$
>  <molecule>
Cc1ccc2c(c1CCCC(C)(C)O)C(=O)C(=O)C(C(C)C)=C2O

>  <TGI>
> 100 µM

$$$$
>  <molecule>
O=C1c2ccn(CCCCNC(CO)(CO)CO)c2C(=O)c2c1c(O)c1ccccc1c2O

>  <TGI>
4.67 µM

$$$$
>  <molecule>
O=C(O)c1ccccc1-c1ccccc1C(=O)Nc1ccc2c(c1)Cc1cc(F)ccc1-2

>  <TGI>
50.2 µM

$$$$
>  <molecule>
O/N=C\c1c(O)ccc2ccccc12

>  <TGI>
> 100 µM

$$$$
>  <molecule>
C=CCNC1=C2C[C@@H](C)C[C@@H](OC)[C@@H](OC(=O)CCCN)[C@H](C)/C=C(\C)[C@@H](OC(N)=O)[C@H](OC)/C=C\C=C(/C)C(=O)NC(=CC1=O)C2=O

>  <TGI>
> 50.4 µM

$$$$
>  <molecule>
CC(C)(C)C(=O)/C=C/c1ccc(Oc2ccccc2)cc1

>  <TGI>
28.4 µM

$$$$
>  <molecule>
COc1c(C)c2c(c(C)c1Cl)Oc1c(C=O)c(O)c(Cl)c(C)c1C(=O)O2

>  <TGI>
44.9 µM

$$$$
>  <molecule>
CC(=O)OC1CC2c3cccc4c3C(CC2N(C)C1=O)CN4C(=O)c1ccccc1 (centres undefined)

>  <TGI>
53.3 µM

$$$$
>  <molecule>
COC(=O)c1ccc(/C=C2\N=C(C)OC2=O)cc1

>  <TGI>
> 100 µM

$$$$
>  <molecule>
Cc1cc(C)n(CCNCCn2nc(C)cc2C)n1

>  <TGI>
> 100 µM

$$$$
>  <molecule>
Cc1cccc(NC(=O)/C=C/c2ccc(N(CCC#N)CCC#N)cc2C)c1

>  <TGI>
> 100 µM

$$$$
>  <molecule>
C[C@]12CCC(=O)C=C1CC[C@@H]1C2CC[C@]2(C)c3nn(-c4ccc(F)cc4)nc3CC12 (some centres undefined)

>  <TGI>
> 100 µM

$$$$
>  <molecule>
CC(C)(C)N1CC2(CCCCC2)C1=O

>  <TGI>
> 100 µM

$$$$
>  <molecule>
Nc1c(C(=O)N/N=C/c2ccc(-c3ccc(Cl)cc3)o2)cnn1-c1ccnc2c(C(F)(F)F)cccc12

>  <TGI>
> 100 µM

$$$$
>  <molecule>
C#C[C@]1(O)CC[C@H]2[C@@H]3CC=C4c5sc(Nc6ccccc6)nc5CC[C@]4(C)[C@H]3CC[C@@]21C

>  <TGI>
3.18 µM

$$$$
>  <molecule>
Cc1sc2nc(NCCc3c[nH]c4ccc(Cl)cc34)[nH]c(=O)c2c1C

>  <TGI>
6.94 µM

$$$$
>  <molecule>
COc1ccc(C(=O)C(CO)Oc2ccccc2OC)cc1OC (centres undefined)

>  <TGI>
> 100 µM

$$$$
>  <molecule>
Cc1ccc(C2CC(c3ccco3)=NN2c2ccccc2)o1 (centres undefined)

>  <TGI>
> 100 µM

$$$$
>  <molecule>
Cc1cc(NC(=O)c2ccc(C)c(Nc3nccc(-c4cccnc4)n3)c2)cc(-n2cnc(C)c2)c1

>  <TGI>
7.61 µM

$$$$
>  <molecule>
CCN(CC)/C(Cl)=C(Cl)\C(=C1\Nc2ccc(OC)cc21)[N+](=O)[O-]

>  <TGI>
> 100 µM

$$$$
>  <molecule>
NC1CCCC[C@H]1N.N[C@@H]1CCCC[C@@H]1N.O=C(P(=O)([O-])[O-])P(=O)([O-])[O-].[Pt+4].[Pt+4]

>  <TGI>
> 100 µM

$$$$
